Test system: BEL-7404 tumor cell line
Assay summary: Antiproliferative activity against human Bel7404 cells after 48 hrs by MTT assay
Type: functional, cell-based
Test conditions: BEL-7404, 48 h
pIC50: −log10 of the molar value.
Assign Satisfied whenever pIC50 does not fall below 5; assign Not satisfied whenever it does.

Hi team, for C=C1C(=O)[C@]23[C@H](O)[C@H]1CC[C@H]2[C@@]12CO[C@@]3(O)[C@@H](O)[C@@H]1C(C)(C)C[C@H](Cl)[C@H]2O , is the recorded pIC50 at or above 5? Satisfied

Confirm if pIC50 reported for the molecule C=C1C(=O)[C@]23[C@H](OC(=O)/C=C/c4ccccc4)[C@H]1CC[C@H]2[C@]12C=CCC(C)(C)[C@H]1[C@H](O)[C@]3(O)OC2 is 5 or above. Satisfied

Has C=C1C(=O)[C@]23[C@H](O)[C@H]1CC[C@H]2[C@@]12CO[C@]3(O)[C@@H](O)[C@@H]1C(C)(C)CC[C@@H]2O a recorded pIC50 greater than or equal to 5? Not satisfied

Answer whether pIC50 of C=C1C(=O)[C@]23[C@H](OC(=O)c4ccc(Br)cc4)[C@H]1CC[C@H]2[C@]12C=CCC(C)(C)[C@H]1[C@H](O)[C@]3(O)OC2 is greater than or equal to 5. Satisfied

// inclusive: pIC50 at least 5? input: C=C1C(=O)[C@]23[C@H](OC(=O)c4cccc(C)c4)[C@H]1CC[C@H]2[C@]12C=CCC(C)(C)[C@H]1[C@H](O)[C@]3(O)OC2 Satisfied
